Provide the reported EC50 of each item.
# TARGET: human mGluR5A (Homo sapiens, UniProt P41594)
# Construct: expressed in transfected cells
# Sequence (P41594 21-1180 isoform P41594-2 limits assumed): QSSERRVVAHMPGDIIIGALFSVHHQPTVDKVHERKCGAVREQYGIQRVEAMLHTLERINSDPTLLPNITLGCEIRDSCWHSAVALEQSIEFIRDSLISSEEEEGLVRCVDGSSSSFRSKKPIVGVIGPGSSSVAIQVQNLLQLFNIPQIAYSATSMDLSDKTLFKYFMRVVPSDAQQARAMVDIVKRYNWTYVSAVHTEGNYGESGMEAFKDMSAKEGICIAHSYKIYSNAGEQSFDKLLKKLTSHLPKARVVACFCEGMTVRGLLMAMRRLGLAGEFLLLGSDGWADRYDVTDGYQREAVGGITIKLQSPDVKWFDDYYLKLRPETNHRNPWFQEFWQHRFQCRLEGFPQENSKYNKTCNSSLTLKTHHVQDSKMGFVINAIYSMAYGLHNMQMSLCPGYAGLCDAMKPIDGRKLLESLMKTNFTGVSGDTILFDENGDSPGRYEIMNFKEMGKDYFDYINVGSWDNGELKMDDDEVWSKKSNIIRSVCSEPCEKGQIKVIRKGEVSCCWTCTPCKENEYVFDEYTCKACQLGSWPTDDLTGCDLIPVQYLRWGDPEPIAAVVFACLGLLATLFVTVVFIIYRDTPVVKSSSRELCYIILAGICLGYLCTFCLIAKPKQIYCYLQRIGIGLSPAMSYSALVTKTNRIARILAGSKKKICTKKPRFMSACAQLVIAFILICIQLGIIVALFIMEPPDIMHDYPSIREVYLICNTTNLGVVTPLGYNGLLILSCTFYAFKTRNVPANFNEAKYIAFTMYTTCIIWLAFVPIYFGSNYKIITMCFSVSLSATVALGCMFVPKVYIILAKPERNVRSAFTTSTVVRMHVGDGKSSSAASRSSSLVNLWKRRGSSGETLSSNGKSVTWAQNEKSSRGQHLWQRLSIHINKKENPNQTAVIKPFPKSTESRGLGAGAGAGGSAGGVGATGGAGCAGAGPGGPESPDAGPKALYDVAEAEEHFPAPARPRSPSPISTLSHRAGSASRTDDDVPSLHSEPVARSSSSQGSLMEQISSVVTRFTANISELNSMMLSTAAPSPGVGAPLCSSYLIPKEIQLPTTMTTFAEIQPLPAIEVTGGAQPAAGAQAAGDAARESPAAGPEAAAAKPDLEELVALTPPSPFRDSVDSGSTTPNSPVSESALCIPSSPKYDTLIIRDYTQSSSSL
# PROCEDURE_SUMMARY: FLIPR Ca2+ mobilization assay, potentiation in the presence of 300 nM glutamate (EC20)
# Format: cell-based
# STATED_CONDITIONS: potentiation, CHO cells expressing human mGluR5A, in presence of 300 nM glutamate; inflection points; read-out: FLIPR EC50
One number for each entry, in µM.

Examples with their reported EC50 follow.
MOLECULAR_STRING: C[C@@H]1CC[C@H](c2noc(-c3ccc(F)cc3)n2)CN1C(=O)c1ccc(F)cc1
EC50 / µM: 0.124
--
MOLECULAR_STRING: COc1cc(C(=O)N2C[C@@H](c3nc(-c4cc(Cl)c[nH]4)no3)CC[C@H]2C)ccn1
EC50 / µM: 0.055
--
MOLECULAR_STRING: C[C@@H]1CC[C@H](c2noc(-c3cc(Cl)c[nH]3)n2)CN1C(=O)c1ccc(F)nc1
EC50 / µM: 0.146

Turning now to a further compound:
Ask: Look up EC50: C[C@@H]1CC[C@H](c2noc(-c3cc(Cl)c[nH]3)n2)CN1C(=O)c1ccc(F)cc1
Reply: 0.025
